System: OVCAR-3 ovarian
Test: NCI-60 one-dose screen, 48 h (100 = growth as untreated, 0 = no growth, -100 = all killed)
Conditions: 10 µM unless noted
The panel holds about 83,000 compounds, 20% with a hit somewhere; the sample as a whole holds those more often.
Field 'label' (enum: T / F). Set to T when growth is strictly under 20%; else F.

                                   molecule  answerlabel
0          O=C1c2ccccc2-c2nccc3cc(Cl)nc1c23            T
1  CN(C)c1ccc(/C=C\C2=[N+](C)c3ccccc3C2(C)C)cc1            T
2  Nc1c(C(=O)Nc2cccc3c2OCCO3)sc2nc3c(cc12)C(=O)CCC3            T
3       COc1ccc(/C=C2\N=C3SC=C(N)N3C2=O)cc1            F
4  CC[C@H](Nc1nc(N)nc(C)c1C#N)c1nc2cccc(NCc3ccc(C(=O)NO)cc3)c2c(=O)n1-c1ccccc1            T
5  C=CC[N+]1(CCO)CCN=C1CCCCCCCCCCCCC (centres undefined)            T
6  CCN(CC)Cc1cc(Nc2c3ccc(Cl)cc3nc3c(C)cccc23)ccc1O            T
7        COC(/C=C/c1ccc([N+](=O)[O-])cc1)OC            F
8  CC1CN(C(C)C)C(=S)N(c2ccccc2)C1=O (centres undefined)            F

----------
System: SW-620 colon
Test: NCI-60 one-dose screen, 48 h (100 = growth as untreated, 0 = no growth, -100 = all killed)
Details: 10 µM unless noted
Compounds without any hit were thinned out: in the full panel of roughly 83,000, 20% have a hit.
measuredQuantity: growth (%)

In [3]: df
Out[3]:
                                   compound  measuredquantity  observedresult
0  C=CCSc1nnc(-c2ccc(C(C)(C)C)cc2)n1-c1cccc(C(F)(F)F)c1            growth            46.2
1  COc1cc(-c2cc(-c3nc4ccc(Cl)cc4[nH]3)[nH]n2)cc(OC)c1OC            growth            78.7
2  COc1ccc(-c2nn(-c3ccccc3)cc2/C=C2\SC(=O)NC2=O)cc1            growth             107
3  CCC(c1ccccc1)C(CC)c1ccc(O)c(O)c1 (stereo not given)            growth            97.3
4  O=C1c2cccnc2C(=O)c2c1c(C(=O)OCCN1CCOCC1)c1ccccn21            growth            6.61
5  COc1ccc(-n2c(C)nc3c(c(C)nn3-c3ccccc3)c2=O)cc1            growth            23.1
6  N#Cc1ccc(NC(=O)Nc2ccc(Cc3ccc(NC(=O)Nc4ccc(C#N)cc4)cc3)cc2)cc1            growth              34
7  CC/C(=C(\c1ccc(O)cc1)c1ccc(OCCN(C)CCN(C)C(=O)CCCCC(=O)c2c(C)[nH]c(/C=C3\N=C(c4ccc[nH]4)C=C3OC)c2C)cc1)c1ccccc1            growth              88
8  O=C(CN1CCN(c2cc3c(cc2F)c(=O)c(C(=O)N/N=C/c2ccccc2)cn3C2CC2)CC1)N/N=C\c1ccccc1            growth            87.8
9  Nc1nc2ccc(-c3nc4ccc5[nH]ncc5c4c4c3CCC4)cc2s1            growth            6.95

----------
Test system: TK-10 renal
Assay: NCI-60 one-dose screen, 48 h
Details: 10 µM unless noted
About 83,000 compounds went through this panel and 20% of them were active in at least one assay; those are over-represented in the sample as a whole. Activity calls are given as the source filed them. The calls were made as follows: active = growth percent below 10; inactive = the rest.
Outcome codes: y = active, n = inactive

In [3]: df
Out[3]:
                                    compound  answerlabel
 0              O=C(O)c1cccc2c1-c1ccccc1C2=O            n
 1  CCC(=O)Oc1ccc(/C(=C(\C)c2ccccc2)c2ccc(OCCN(CC)CC)cc2)cc1            n
 2  CCOC(=O)C(C#N)C1CCCCC1 (configuration not stated)            n
 3     COc1ccc(CCN2CC=Cn3c2nc2ccccc2c3=O)cc1            n
 4  COc1cc(OC)c(/C=C/S(=O)(=O)Cc2ccc(OC)c(N)n2)c(OC)c1            n
 5  CC1(C)OCC2OC3(C(=O)O)OC(C)(C)OC3C2O1 (configuration not stated)            n
 6  CCN(CC)CC#CCOC(=O)[C@]1(C)CCC[C@@]2(C)[C@H]1CC(C=O)=C1C=C(C(C)C)CC[C@@H]12            n
 7       CSc1ccc(N=C=C(c2ccccc2)c2ccccc2)cc1            n
 8  CCCCCCCCCCCCS(=O)CC(C)O (configuration not stated)            n
 9  COc1ccc(C(=O)/C=C/c2c(Cl)c3c(c(OC)c2Cl)OCC(=O)N3)cc1            n
10  CCOc1ccc(Nc2nc(-c3c(C)nc4ncccn34)cs2)cc1            n
11  Nc1nc(-c2ccc(F)cc2)cc(-c2cnn(-c3ccccc3)n2)n1            n
12  COCCOc1ccc(-c2nc3ccc(-c4nc5ccc(N6CCN(C)CC6)cc5[nH]4)cc3[nH]2)cc1            n
13  CC/C=C\C[C@H](O)C/C=C1/C(=O)C=C[C@@H]1C/C=C\CCCC(=O)OC(C)C            y
14  Clc1cccc(Nc2nc(Nc3cnc4ccccc4c3)c3[nH]cnc3n2)c1            n
15  CC(=O)OCC1OC(OC2=C(CC=C(Cl)Cl)C(=O)c3ccccc3C2=O)C(OC(C)=O)C(OC(C)=O)C1OC(C)=O (configuration not stated)            n
16  CN1CCN(Cc2ccc(NC(=O)c3cncc(C#Cc4cncc5nccnc45)c3)cc2C(F)(F)F)CC1            n

----------
Test system: SK-MEL-2 melanoma
Assay: NCI-60 one-dose screen, 48 h (100 = growth as untreated, 0 = no growth, -100 = all killed)
Conditions: 10 µM unless noted
Compounds without any hit were thinned out: in the full panel of roughly 83,000, 20% have a hit.
Quick reference for growth among some compounds
measuredQuantity: growth (%)

>>> print(df.to_string())
                                   compound       testedsystem  measuredquantity  valueunits  observedresult
0  CN1C2CCC1/C(=C\c1ccc(Cl)cc1)C1=C2[C@@H](c2ccc(Cl)cc2)C(C#N)=C(N)O1 (stereo not given in full)  SK-MEL-2 melanoma            growth           %            84.6
1  O=C(/C=C/c1cc2ccccc2[nH]c1=O)/C=C/c1cc2ccccc2[nH]c1=O  SK-MEL-2 melanoma            growth           %              54
2  COc1ccc(C2Nc3ccccc3-n3cccc32)cc1 (stereo not given)  SK-MEL-2 melanoma            growth           %            92.7
3  CCN(CC)CCCC(C)NCCCNc1cccc2cccnc12 (stereo not given)  SK-MEL-2 melanoma            growth           %             112
4  CCN(CC)Cc1cc(Nc2c3ccc(Cl)cc3nc3c(C)cccc23)ccc1O  SK-MEL-2 melanoma            growth           %           -73.2

----------
Test system: NCI-H460 lung
Experiment: NCI-60 one-dose screen, 48 h (100 = growth as untreated, 0 = no growth, -100 = all killed)
Conditions: 10 µM unless noted
About 83,000 compounds went through this panel and 20% of them were active in at least one assay; those are over-represented in the sample as a whole.
measuredQuantity: growth (%)

                                    compound   testedsystem  measuredquantity  observedresult
 0  CC(C)c1c(C(=O)Nc2ccccc2)c(-c2ccccc2)c(-c2ccc(F)cc2)n1CC[C@@H]1CC=CC(=O)O1  NCI-H460 lung            growth            5.24
 1  Cc1cc2cc3cc(C)c(N(C)C)cc3[n+](C)c2cc1N(C)C  NCI-H460 lung            growth            10.9
 2  O=C(/C=C/c1cc2ccccc2[nH]c1=O)/C=C/c1cc2ccccc2[nH]c1=O  NCI-H460 lung            growth           -36.7
 3            O=C1O[C@H]([C@H](O)CO)C(O)=C1O  NCI-H460 lung            growth             104
 4  CC/C(=C(\c1ccc(O)cc1)c1ccc(OCCN(C)CCN(C)C(=O)CCCCC(=O)c2c(C)[nH]c(/C=C3\N=C(c4ccc[nH]4)C=C3OC)c2C)cc1)c1ccccc1  NCI-H460 lung            growth            76.8
 5  CCN(CC)CC(O)c1cc(-c2ccc(Cl)cc2)nc2c(C)c(Cl)ccc12 (stereo not given)  NCI-H460 lung            growth             -86
 6  CCCCCCCCCC(=O)Oc1ccc(/C(=C(/C)Cc2cccc(OC)c2)c2ccc(OCCN(C)C)cc2)cc1  NCI-H460 lung            growth             112
 7  O=C1OC2C(I)C3CC2C1C3c1ccccc1 (stereo not given)  NCI-H460 lung            growth             117
 8  CCCCN(CCCC)CCC(C)(O)c1cc2ccccc2c2ccccc12 (stereo not given)  NCI-H460 lung            growth            90.1
 9    CCCCN(CCCC)Cc1c(C)[nH]c2cc(OC)ccc2c1=O  NCI-H460 lung            growth             103
10  O=C1C[C@H](N2C(=O)c3ccccc3S2(=O)=O)C2CO[C@@H]1O2  NCI-H460 lung            growth             103
11  CCCCCCCCCCCCCCCCCCSC1=CC(=O)C(OC)=C(OC)C1=O  NCI-H460 lung            growth             105
12  CCOc1ccc(Nc2nc(-c3c(C)nc4ncccn34)cs2)cc1  NCI-H460 lung            growth             5.6
13  COc1cc(-c2c3sc(=O)[nH]c3nc3c2c(=O)[nH]n3C(C)C)cc2c1OCO2  NCI-H460 lung            growth             101
14  COc1cc(C#N)cc(OC)c1OCCN(CCOc1c(OC)cc(C#N)cc1OC)S(=O)(=O)c1ccc(C)cc1  NCI-H460 lung            growth             112
